system: Pectobacterium carotovorum; assay: Antibacterial activity against Pectobacterium carotovorum at 1 ug/ml after 24 hr by well diffusion method; format: functional; details: read-out: IZ
readout: zone of inhibition at 1 µg/mL
Reply with a number, then the unit it belongs to.

Below: 2 compounds and their reported zone of inhibition at 1 µg/mL.
- CC(=O)C(=NNc1nnc(C)s1)C(C)=O: 6 mm
- CCc1nnc(NN=C(C(C)=O)C(C)=O)s1: 7 mm

Prompt line: Param readout= zone of inhibition at 1 µg/mL; system= Pectobacterium carotovorum; entry= CCc1nnc(NN=C(C#N)C#N)s1 ; returns value.
Response line: 7 mm

Prompt line: GET /values?readout=zone of inhibition at 1 µg/mL&system=Pectobacterium carotovorum&item= CC1(C)S[C@@H]2[C@H](NC(=O)[C@H](N)c3ccccc3)C(=O)N2[C@H]1C(=O)O [AMPICILLIN]
Response line: 31 mm

* * *

tested on: Escherichia coli; assay: Antibacterial activity against Escherichia coli at 1 ug/ml after 24 hr by well diffusion method; assay type: functional; details: read-out: IZ
readout: zone of inhibition at 1 µg/mL (mm)
Numbers only; they are read as mm.

Prompt line: Can you share its zone of inhibition at 1 µg/mL? I mean this molecule: Cc1nnc(NN=C(C#N)C#N)s1
Response line: 6

Prompt line: Given the entry CC1(C)S[C@@H]2[C@H](NC(=O)[C@H](N)c3ccccc3)C(=O)N2[C@H]1C(=O)O [AMPICILLIN] , report its measured zone of inhibition at 1 µg/mL.
Response line: 28

Prompt line: zone of inhibition at 1 µg/mL for CCc1nnc(NN=C(C#N)C#N)s1 ?
Response line: 9

Prompt line: What zone of inhibition at 1 µg/mL value was documented for this molecule, CCOC(=O)/C(C#N)=N/Nc1nnc(CC)s1 ?
Response line: 9

Prompt line: Look up zone of inhibition at 1 µg/mL: CCOC(=O)/C(C#N)=N/Nc1nnc(C)s1
Response line: 7

Prompt line: For the molecule shown here, CC(=O)C(=NNc1nnc(C)s1)C(C)=O , give the reported zone of inhibition at 1 µg/mL.
Response line: 8
